test system: Escherichia coli TOP10; assay: shrunken log2 fold change of peptide-encoding DNA abundance (4.5 h post-induction vs induction); higher = less antimicrobial activity (less host growth inhibition); details: time post-induction: 4.5 h; library: site-saturation at positions 5, 18, 19, 20;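 also: peptides expressed intracellularly from a pBAD plasmid library in pooled LB shake-flask culture, induced with 0.3% L-arabinose, DNA abundance read by NGS, three biological replicates, DESeq2 with apeglm shrinkage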
Property Label: shrunken log2 fold change
Give bare numbers.

Batch lookup, shrunken log2 fold change per entry.
1. RRIRDRPPRLPRPRPRPQTEPRP
2. RRIRRRPPRLPRPRPRPEREPRP
3. RRIRDRPPRLPRPRPRPRPTPRP

Ans:
[0.125, 0.297, 0.381]

Quick request: shrunken log2 fold change for each listed item, please.
1. RRIRKRPPRLPRPRPRPGVIPRP
2. RRIRARPPRLPRPRPRPRLMPRP
3. RRIRRRPPRLPRPRPRPVTHPRP
4. RRIRDRPPRLPRPRPRPNHWPRP

Ans:
0.251
0.216
0.598
0.0735

// batch mode: one shrunken log2 fold change value per listed entry
1. RRIRNRPPRLPRPRPRPGDEPRP
2. RRIRIRPPRLPRPRPRPTETPRP
3. RRIRKRPPRLPRPRPRPNWHPRP
4. RRIRERPPRLPRPRPRPKVGPRP
5. RRIRQRPPRLPRPRPRPYMFPRP
6. RRIRHRPPRLPRPRPRPADPPRP
7. RRIRNRPPRLPRPRPRPNWSPRP
8. RRIRARPPRLPRPRPRPVIFPRP

Ans:
0.0115
0.0225
-0.0566
0.0685
-0.392
0.0438
-0.106
0.0535
